- EXPERIMENT DESCRIPTION: Half life in morbidly obese adult human at 4 mg/kg, iv administered as single dose 30 mins infusion
- Type: ADME, organism-based
- Parameters: dose 4 mg/kg, route intravenous
- CONDITION: in vivo
TEST READOUT: half-life (h)
Output spec: scalar in h, unitless text.

State the recorded half-life for this entry: CCCCCCCCCC(=O)N[C@@H](Cc1c[nH]c2ccccc12)C(=O)N[C@H](CC(N)=O)C(=O)N[C@@H](CC(=O)O)C(=O)N[C@@H]1C(=O)NCC(=O)N[C@@H](CCCN)C(=O)N[C@@H](CC(=O)O)C(=O)N[C@H](C)C(=O)N[C@@H](CC(=O)O)C(=O)NCC(=O)N[C@H](CO)C(=O)N[C@@H]([C@H](C)CC(=O)O)C(=O)N[C@@H](CC(=O)c2ccccc2N)C(=O)O[C@@H]1C
8.12

---

- EXPERIMENT DESCRIPTION: AUC (0 to infinity) in healthy human subjects at 12 mg/kg, iv administered as 30 mins infusion every 24 hrs measured on day 4
- Format: ADME, organism-based
- Design: time infinity, dose 12 mg/kg, route intravenous
- CONDITION: plasma
TEST READOUT: AUC(0-inf) (µg·h/mL)
// units = µg·h/mL; emit number, no label

Quick one: AUC(0-inf) of CCCCCCCCCC(=O)N[C@@H](Cc1c[nH]c2ccccc12)C(=O)N[C@H](CC(N)=O)C(=O)N[C@@H](CC(=O)O)C(=O)N[C@@H]1C(=O)NCC(=O)N[C@@H](CCCN)C(=O)N[C@@H](CC(=O)O)C(=O)N[C@H](C)C(=O)N[C@@H](CC(=O)O)C(=O)NCC(=O)N[C@H](CO)C(=O)N[C@@H]([C@H](C)CC(=O)O)C(=O)N[C@@H](CC(=O)c2ccccc2N)C(=O)O[C@@H]1C ?
1280

---

- EXPERIMENT DESCRIPTION: Half life in healthy human at 8 mg/kg, iv administered as 30 mins infusion every 24 hrs measured on day 7
- Assay type: ADME, organism-based
- Parameters: dose 8 mg/kg, route intravenous
- CONDITION: in vivo
TEST READOUT: half-life (h)
Report the figure in h without appending any unit label.

Look up half-life: CCCCCCCCCC(=O)N[C@@H](Cc1c[nH]c2ccccc12)C(=O)N[C@H](CC(N)=O)C(=O)N[C@@H](CC(=O)O)C(=O)N[C@@H]1C(=O)NCC(=O)N[C@@H](CCCN)C(=O)N[C@@H](CC(=O)O)C(=O)N[C@H](C)C(=O)N[C@@H](CC(=O)O)C(=O)NCC(=O)N[C@H](CO)C(=O)N[C@@H]([C@H](C)CC(=O)O)C(=O)N[C@@H](CC(=O)c2ccccc2N)C(=O)O[C@@H]1C
9

---

- EXPERIMENT DESCRIPTION: Mean residence time in adult human with hepatic impairment at 6 mg/kg, iv administered as single dose 30 mins infusion
- Format: ADME, organism-based
- Design: dose 6 mg/kg, route intravenous
- CONDITION: in vivo
TEST READOUT: MRT (h)
Please reply with the bare figure in h and do not write the unit itself.

Could you tell me which MRT is on file for CCCCCCCCCC(=O)N[C@@H](Cc1c[nH]c2ccccc12)C(=O)N[C@H](CC(N)=O)C(=O)N[C@@H](CC(=O)O)C(=O)N[C@@H]1C(=O)NCC(=O)N[C@@H](CCCN)C(=O)N[C@@H](CC(=O)O)C(=O)N[C@H](C)C(=O)N[C@@H](CC(=O)O)C(=O)NCC(=O)N[C@H](CO)C(=O)N[C@@H]([C@H](C)CC(=O)O)C(=O)N[C@@H](CC(=O)c2ccccc2N)C(=O)O[C@@H]1C ?
12
